Values from PubChem BioAssay (NCI)

Tested on: SK-MEL-5 melanoma
measurement.protocol: NCI tumour cell line growth inhibition, 48 h
I'd appreciate it if you could supply TGI values for the items below.

Before answering, review these 5 worked examples.
{"columns": ["molecule", "TGI"],
 "data": [
  ["CNC(=S)/C(C#N)=C(\\N)N1CCN(C)CC1", "> 100 µM"],
  ["COc1ccc(C(=S)N(C)NC(=O)CC(=O)NN(C)C(=S)c2ccc(OC)cc2)cc1", "> 100 µM"],
  ["COC(=O)C(Cc1ccc(OC)cc1O)NC(=O)OC(C)(C)C (stereo unspecified)", "> 100 µM"],
  ["Cc1ccc(C2=NN(c3ccc(S(C)(=O)=O)cc3)C(=O)CC2)cc1", "> 42.1 µM"],
  ["CCOC(=O)[C@@H]1[C@@H]2NC(=O)N[C@@]1(C)Oc1ccccc12", "> 100 µM"]
]}

List reported TGI for each of these molecules:
1. COC(=O)[C@@]12CN(C)[C@@H](C(C)(C)C)N1C(=O)OC2c1ccccc1 (stereo partly specified)
2. CCCCCCCCCCCCCC(=O)NCO

["> 100 µM", "> 100 µM"]
